Below: a set of entries, each annotated with reported Emax, p-ERK1/2 activation.
Molecular target: hGPR55 (Homo sapiens, UniProt Q9Y2T6)
Construct: host or cells: CHO-K1
Sequence (Q9Y2T6 whole entry): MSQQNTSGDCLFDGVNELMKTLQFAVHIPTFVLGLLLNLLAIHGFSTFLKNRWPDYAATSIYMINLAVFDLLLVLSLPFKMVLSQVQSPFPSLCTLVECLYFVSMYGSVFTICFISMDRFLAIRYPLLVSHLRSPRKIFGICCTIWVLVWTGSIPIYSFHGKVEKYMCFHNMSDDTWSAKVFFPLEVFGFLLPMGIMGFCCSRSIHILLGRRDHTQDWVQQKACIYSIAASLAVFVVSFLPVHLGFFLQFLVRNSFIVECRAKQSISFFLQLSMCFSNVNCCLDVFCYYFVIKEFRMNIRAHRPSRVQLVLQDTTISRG
Test: p-ERK1/2 activation, in-cell Western, CHO cells expressing hGPR55
Format: cell-based
Conditions: fold over vehicle; CHO cells expressing hGPR55, 30 min; mean ± SEM, n = 6
Numeric only. Scale: Fold

Examples from the recorded data:
Compound	Metric Name	Reported Measurement
CCCCc1cc(O)c2cc(Cc3ccccc3O)c(=O)n(C)c2c1	Emax, p-ERK1/2 activation	1.3
C=C(C)[C@@H]1CCC(C)=C[C@H]1c1c(C)cc(O)cc1O [Compound O-1602, O-1602, reference compound]	Emax, p-ERK1/2 activation	1.3
CCCCc1cc(OC)c2cc(Cc3ccccc3OC)c(=O)n(C)c2c1	Emax, p-ERK1/2 activation	1.4
CCCCc1cc(O)c2cc(Cc3ccccc3O)c(=O)[nH]c2c1	Emax, p-ERK1/2 activation	1.2

# input for lookup
Dear colleague, I am looking for the recorded Emax, p-ERK1/2 activation of the following compound: CCCCc1cc(OC)c2cc(Cc3ccccc3OC)c(=O)[nH]c2c1
1.5

###

Target: hGPR55 (Homo sapiens, UniProt Q9Y2T6)
Construct: host or cells: CHO-K1
Assay: [3H]CP55,940 radioligand displacement assay on hGPR55 CHO cell membranes
Format: binding
Conditions: read-out: Ki hGPR55
Below: a set of entries, each annotated with reported pKi.
Note: pKi values are expressed as the negative base-10 logarithm of concentration in M.

Examples from the recorded data:
Molecule	pKi
CCCCc1cc(OC)c2cc(Cc3ccccc3OC)c(=O)[nH]c2c1 [Compound 1]	7.85
CCCCc1cc(O)c2cc(Cc3ccccc3O)c(=O)[nH]c2c1 [Compound 3]	8.21
CCCCc1cc(OC)c2cc(Cc3ccccc3OC)c(=O)n(C)c2c1 [Compound 2]	8.92

Dear colleague, I am looking for the recorded pKi of the following molecule: CCCCc1cc(O)c2cc(Cc3ccccc3O)c(=O)n(C)c2c1 [Compound 4]
8.15

Dear colleague, I am looking for the recorded pKi of the following molecule: C=C(C)[C@@H]1CCC(C)=C[C@H]1c1c(C)cc(O)cc1O [Compound O-1602, O-1602, reference compound]
8.00

###

Molecular target: hGPR55 (Homo sapiens, UniProt Q9Y2T6)
Construct: host or cells: CHO-K1
Experiment: [3H]CP55,940 radioligand displacement assay on hGPR55 CHO cell membranes
Format: binding
Metric Name: Ki (nM)
Numeric only. Scale: nM

Dear colleague, I am looking for the recorded Ki of the following compound: CCCCCCC(C)(C)c1ccc([C@@H]2C[C@H](O)CC[C@H]2CCCO)c(O)c1 [CP55,940, reference compound]
13

###

Below: a set of entries, each annotated with reported Ki.
Target: human CB2R (Homo sapiens)
Sequence (P34972 whole entry): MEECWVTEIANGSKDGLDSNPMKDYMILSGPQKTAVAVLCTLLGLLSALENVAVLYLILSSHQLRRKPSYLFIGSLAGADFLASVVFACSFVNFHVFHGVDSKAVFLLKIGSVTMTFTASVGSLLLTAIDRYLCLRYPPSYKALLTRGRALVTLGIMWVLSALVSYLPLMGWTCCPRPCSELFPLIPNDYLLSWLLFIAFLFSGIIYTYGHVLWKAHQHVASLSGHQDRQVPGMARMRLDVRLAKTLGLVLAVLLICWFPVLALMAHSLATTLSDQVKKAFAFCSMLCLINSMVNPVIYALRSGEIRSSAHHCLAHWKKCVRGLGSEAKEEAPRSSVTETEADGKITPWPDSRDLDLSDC
Numeric only. Scale: nM

Structure Smiles	Ki / nM
CCCCc1cc(O)c2cc(Cc3ccccc3O)c(=O)n(C)c2c1	7.9

Dear colleague, I am looking for the recorded Ki of the following compound: CCCCc1cc(OC)c2cc(Cc3ccccc3OC)c(=O)n(C)c2c1
6.9

###

Biological target: hGPR55 (Homo sapiens, UniProt Q9Y2T6)
Construct: host or cells: CHO-K1
Assay: p-ERK1/2 activation, in-cell Western, CHO cells expressing hGPR55
Assay type: cell-based
Details: CHO cells expressing hGPR55, 30 min treatment; mean (95% CI), n = 6; read-out: EC50 95% CI, p-ERK1/2 activation
Description: Downstream signaling by hGPR55 was investigated by quantifying p-ERK activation in the in-cell Western assay. […] Data for p-ERK in-cell westerns are shown as fold over vehicle response (i.e., 1). Estimates of Ki, EC50 and Emax were determined using non-linear regression (3 parameters) (GraphPad, Prism, v. 9.0). p < 0.05 was determined to be significant.
Metric Name: pEC50
Note: pEC50 values are expressed as the negative base-10 logarithm of concentration in M.

Examples from the recorded data:
Compound	Experimental System	Metric Name	Reported Measurement
CCCCc1cc(OC)c2cc(Cc3ccccc3OC)c(=O)n(C)c2c1	hGPR55 (Homo sapiens, UniProt Q9Y2T6)	pEC50	8.96
CCCCc1cc(OC)c2cc(Cc3ccccc3OC)c(=O)[nH]c2c1	hGPR55 (Homo sapiens, UniProt Q9Y2T6)	pEC50	8.19
C=C(C)[C@@H]1CCC(C)=C[C@H]1c1c(C)cc(O)cc1O [Compound O-1602, O-1602, reference compound]	hGPR55 (Homo sapiens, UniProt Q9Y2T6)	pEC50	7.21

Dear colleague, I am looking for the recorded pEC50 of the following compound: CCCCc1cc(O)c2cc(Cc3ccccc3O)c(=O)n(C)c2c1
7.96

Dear colleague, I am looking for the recorded pEC50 of the following compound: CCCCc1cc(O)c2cc(Cc3ccccc3O)c(=O)[nH]c2c1
8.85

###

Molecular target: hGPR55 (Homo sapiens, UniProt Q9Y2T6)
Construct: host or cells: CHO-K1
Assay: p-ERK1/2 activation, in-cell Western, CHO cells expressing hGPR55
Type: cell-based
Metric Name: EC50 (nM)
Numeric only. Scale: nM

Dear colleague, I am looking for the recorded EC50 of the following molecule: CCCCCCC(C)(C)c1ccc([C@@H]2C[C@H](O)CC[C@H]2CCCO)c(O)c1 [CP55,940, reference compound]
4.2

###

// values below are pKi; system is human CB1R (Homo sapiens, UniProt P21554)
Sequence (P21554 whole entry): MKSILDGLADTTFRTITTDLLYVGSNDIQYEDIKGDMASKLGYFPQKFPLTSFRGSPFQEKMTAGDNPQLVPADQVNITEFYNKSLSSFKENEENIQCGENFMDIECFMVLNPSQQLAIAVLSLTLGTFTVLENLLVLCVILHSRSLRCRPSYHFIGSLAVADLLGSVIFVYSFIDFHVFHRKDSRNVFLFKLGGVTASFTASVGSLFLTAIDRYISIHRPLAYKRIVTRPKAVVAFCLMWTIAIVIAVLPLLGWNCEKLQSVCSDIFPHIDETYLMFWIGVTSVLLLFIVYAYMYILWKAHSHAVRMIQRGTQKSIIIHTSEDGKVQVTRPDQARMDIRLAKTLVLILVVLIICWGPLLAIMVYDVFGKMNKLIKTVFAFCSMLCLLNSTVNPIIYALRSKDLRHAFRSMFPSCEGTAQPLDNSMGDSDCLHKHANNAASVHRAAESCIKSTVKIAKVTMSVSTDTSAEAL
Note: pKi values are expressed as the negative base-10 logarithm of concentration in M.

Structure Smiles	Experimental System	pKi
CCCCc1cc(O)c2cc(Cc3ccccc3O)c(=O)[nH]c2c1	human CB1R (Homo sapiens, UniProt P21554)	8.29

Dear colleague, I am looking for the recorded pKi of the following compound: CCCCc1cc(O)c2cc(Cc3ccccc3O)c(=O)n(C)c2c1
7.54

###

Metric Name: melting point

Structure Smiles	melting point
CCCCc1cc(OC)c2cc(Cc3ccccc3OC)c(=O)n(C)c2c1	78 to 80 °C
CCCCc1cc(O)c2cc(Cc3ccccc3O)c(=O)[nH]c2c1	252 to 254 °C
CCCCc1cc(OC)c2cc(Cc3ccccc3OC)c(=O)[nH]c2c1	208 to 210 °C

# input for lookup
Dear colleague, I am looking for the recorded melting point of the following compound: CCCCc1cc(O)c2cc(Cc3ccccc3O)c(=O)n(C)c2c1
223 to 225 °C
